TARGET_OR_SYSTEM: Peroxisome proliferator-activated receptor gamma/Nuclear receptor coactivator 1 (Homo sapiens);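 further: agonist potency as compounds enhance coactivator SRC-1 recruitment to PPARgamma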
Sequence (P37231 whole entry): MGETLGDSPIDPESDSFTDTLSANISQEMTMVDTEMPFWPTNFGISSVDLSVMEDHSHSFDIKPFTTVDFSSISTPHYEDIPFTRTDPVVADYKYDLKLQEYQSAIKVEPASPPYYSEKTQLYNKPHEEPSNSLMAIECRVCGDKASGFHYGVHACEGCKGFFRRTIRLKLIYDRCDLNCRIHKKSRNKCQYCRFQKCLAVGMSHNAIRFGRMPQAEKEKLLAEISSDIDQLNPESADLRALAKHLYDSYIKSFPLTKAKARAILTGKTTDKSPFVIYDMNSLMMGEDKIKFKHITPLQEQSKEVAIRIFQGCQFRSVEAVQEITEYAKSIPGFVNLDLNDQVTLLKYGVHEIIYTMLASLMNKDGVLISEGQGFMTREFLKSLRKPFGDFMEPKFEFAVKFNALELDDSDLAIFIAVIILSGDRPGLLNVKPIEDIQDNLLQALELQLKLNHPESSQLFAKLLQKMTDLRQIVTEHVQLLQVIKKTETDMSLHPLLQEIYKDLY
Sequence (Q15788 whole entry, further chain): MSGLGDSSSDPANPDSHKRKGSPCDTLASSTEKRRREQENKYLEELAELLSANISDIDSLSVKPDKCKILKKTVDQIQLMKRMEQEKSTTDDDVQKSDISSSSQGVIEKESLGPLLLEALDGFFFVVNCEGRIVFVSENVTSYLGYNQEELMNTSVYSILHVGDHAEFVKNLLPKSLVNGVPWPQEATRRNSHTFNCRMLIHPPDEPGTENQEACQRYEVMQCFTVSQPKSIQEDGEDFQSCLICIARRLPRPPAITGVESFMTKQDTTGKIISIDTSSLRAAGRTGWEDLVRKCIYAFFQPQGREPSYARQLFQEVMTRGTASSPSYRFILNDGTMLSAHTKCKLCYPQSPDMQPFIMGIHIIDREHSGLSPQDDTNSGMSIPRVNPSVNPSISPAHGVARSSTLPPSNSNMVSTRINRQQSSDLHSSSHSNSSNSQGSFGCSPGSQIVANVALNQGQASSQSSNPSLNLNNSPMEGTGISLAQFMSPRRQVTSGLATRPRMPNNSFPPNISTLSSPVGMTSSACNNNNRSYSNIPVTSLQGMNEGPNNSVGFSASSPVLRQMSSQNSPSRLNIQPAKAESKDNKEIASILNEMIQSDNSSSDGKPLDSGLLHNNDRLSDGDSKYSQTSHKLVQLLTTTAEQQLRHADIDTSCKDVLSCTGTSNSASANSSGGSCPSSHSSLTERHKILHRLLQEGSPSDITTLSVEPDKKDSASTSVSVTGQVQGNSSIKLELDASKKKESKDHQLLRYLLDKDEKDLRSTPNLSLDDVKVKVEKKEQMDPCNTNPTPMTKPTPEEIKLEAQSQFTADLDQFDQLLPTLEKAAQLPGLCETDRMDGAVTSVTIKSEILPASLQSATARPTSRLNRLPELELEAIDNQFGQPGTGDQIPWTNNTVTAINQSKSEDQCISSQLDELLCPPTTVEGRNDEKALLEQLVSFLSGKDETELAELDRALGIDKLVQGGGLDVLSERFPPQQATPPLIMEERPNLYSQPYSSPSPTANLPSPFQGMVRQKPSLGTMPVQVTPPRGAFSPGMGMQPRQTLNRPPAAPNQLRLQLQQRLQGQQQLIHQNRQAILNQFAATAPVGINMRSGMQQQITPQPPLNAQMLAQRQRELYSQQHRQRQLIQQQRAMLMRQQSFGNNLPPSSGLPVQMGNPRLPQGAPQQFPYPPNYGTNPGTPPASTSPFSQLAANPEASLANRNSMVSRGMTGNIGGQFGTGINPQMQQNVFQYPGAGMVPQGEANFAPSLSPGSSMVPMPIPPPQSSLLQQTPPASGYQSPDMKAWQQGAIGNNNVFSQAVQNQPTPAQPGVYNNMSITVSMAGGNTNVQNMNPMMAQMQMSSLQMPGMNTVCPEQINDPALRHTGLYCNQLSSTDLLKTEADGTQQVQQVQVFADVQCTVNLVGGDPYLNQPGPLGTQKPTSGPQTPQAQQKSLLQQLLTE
Type: functional
Some compounds, each annotated with its measured EC50.

compound=CCc1nnc(NC(=O)CSc2ncnc3c2oc2ccccc23)s1 value="22.6 µM (not active)"
compound=CCOC(=O)c1s/c(=N\C(=O)c2ccc(OC(C)C)cc2)n(C)c1C value="18.3 µM (not active)"
compound="COc1ccc(C2CC(=O)c3c([nH]c(C(=O)OC(C)C)c3C)C2)cc1OC (stereo unspecified)" value="> 79.4 µM (not active)"
compound="Nc1nc(C2CCCN2S(=O)(=O)c2ccc(Cl)cc2)cs1 (stereo unspecified)" value="> 79.4 µM (not active)"
compound=CN(C)c1ccc(/N=C/C=C2\N(C)c3ccccc3C2(C)C)cc1 value="> 79.4 µM (not active)"

Input CCc1ccc(N2CSC3=C(C#N)C(c4cccs4)CC(=O)N3C2)cc1 (stereo unspecified) . Output EC50: 63.3 µM (not active)

====

AC50 values by entry
TARGET_OR_SYSTEM: UniProt:P55212
Sequence (P55212 24-179 limits assumed): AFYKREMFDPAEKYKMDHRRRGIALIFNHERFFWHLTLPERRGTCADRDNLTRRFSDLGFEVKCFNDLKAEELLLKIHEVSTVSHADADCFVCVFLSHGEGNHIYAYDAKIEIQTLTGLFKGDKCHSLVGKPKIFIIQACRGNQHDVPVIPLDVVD
Sequence (P55212 194-293 limits assumed): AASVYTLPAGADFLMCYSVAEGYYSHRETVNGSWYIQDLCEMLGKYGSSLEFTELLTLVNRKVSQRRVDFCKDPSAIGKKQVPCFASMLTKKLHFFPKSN
ASSAY_SUMMARY: human caspase-6 inhibitors, dose response, biochemical, VEID-R110 fluorescence, cherry-pick (AID 720632)
Calls of active or inactive are those of the source.

Example results:
molecule=Nc1ccc(S(=O)(=O)Nc2nc3ccccc3o2)cc1 value="42.1 µM (active)"
molecule="Cc1c(NC(=O)C(C)OC(=O)c2ccc([N+](=O)[O-])s2)c(=O)n(-c2ccccc2)n1C (centres undefined)" value="4.82 µM (active)"
molecule="Cc1ccc([S+]([O-])c2ccc([N+](=O)[O-])c3nonc23)cc1 (centres undefined)" value="2.56 µM (active)"

Could you now look at the following molecule, please?
For record `Cc1cc(C=O)c(C)n1-c1cc(C(=O)O)cc(C(=O)O)c1` the listed AC50 is 1.71 µM (active)

====

TARGET_OR_SYSTEM: Bcl-2-like protein 10 (Homo sapiens, UniProt Q9HD36)
Sequence (Q9HD36 whole entry): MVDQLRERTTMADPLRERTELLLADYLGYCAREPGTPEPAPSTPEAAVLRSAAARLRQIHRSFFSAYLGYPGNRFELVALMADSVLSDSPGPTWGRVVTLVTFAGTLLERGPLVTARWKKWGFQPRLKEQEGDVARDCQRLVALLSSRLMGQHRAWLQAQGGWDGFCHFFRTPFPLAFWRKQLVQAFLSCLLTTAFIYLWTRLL
ASSAY_SUMMARY: displacers of TR3 peptide from Bcl-B, primary screen, selectivity assay for Bfl-1 inhibitor project, biochemical, fluorescence polarization, FITC-TR3 peptide (AID 748);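 further: fluorescence polarization from a fluorescein-labelled TR3 peptide binding purified Bcl-B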
Active and inactive are the calls of the source.
PROPERTY_MEASURED: IC50

IC50 measured on COc1ccc(S(=O)(=O)N2CCCC2C(=O)Nc2nnc(-c3cccnc3)s2)cc1 (stereo unspecified) = > 100 µM (inactive)

Lab note: measured IC50 of `Cc1ccc(S(=O)(=O)N2CCCCC2)cc1C(=O)Nc1nc[nH]n1` was 27.7 µM (active)

====

IC50 reference
TARGET_OR_SYSTEM: Sentrin-specific protease 6 (Homo sapiens);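 further: Luminescence-based dose-response confirmatory assay of SENP6 inhibition, following up an ultra-high-throughput screen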
Sequence (Q9GZR1 whole entry): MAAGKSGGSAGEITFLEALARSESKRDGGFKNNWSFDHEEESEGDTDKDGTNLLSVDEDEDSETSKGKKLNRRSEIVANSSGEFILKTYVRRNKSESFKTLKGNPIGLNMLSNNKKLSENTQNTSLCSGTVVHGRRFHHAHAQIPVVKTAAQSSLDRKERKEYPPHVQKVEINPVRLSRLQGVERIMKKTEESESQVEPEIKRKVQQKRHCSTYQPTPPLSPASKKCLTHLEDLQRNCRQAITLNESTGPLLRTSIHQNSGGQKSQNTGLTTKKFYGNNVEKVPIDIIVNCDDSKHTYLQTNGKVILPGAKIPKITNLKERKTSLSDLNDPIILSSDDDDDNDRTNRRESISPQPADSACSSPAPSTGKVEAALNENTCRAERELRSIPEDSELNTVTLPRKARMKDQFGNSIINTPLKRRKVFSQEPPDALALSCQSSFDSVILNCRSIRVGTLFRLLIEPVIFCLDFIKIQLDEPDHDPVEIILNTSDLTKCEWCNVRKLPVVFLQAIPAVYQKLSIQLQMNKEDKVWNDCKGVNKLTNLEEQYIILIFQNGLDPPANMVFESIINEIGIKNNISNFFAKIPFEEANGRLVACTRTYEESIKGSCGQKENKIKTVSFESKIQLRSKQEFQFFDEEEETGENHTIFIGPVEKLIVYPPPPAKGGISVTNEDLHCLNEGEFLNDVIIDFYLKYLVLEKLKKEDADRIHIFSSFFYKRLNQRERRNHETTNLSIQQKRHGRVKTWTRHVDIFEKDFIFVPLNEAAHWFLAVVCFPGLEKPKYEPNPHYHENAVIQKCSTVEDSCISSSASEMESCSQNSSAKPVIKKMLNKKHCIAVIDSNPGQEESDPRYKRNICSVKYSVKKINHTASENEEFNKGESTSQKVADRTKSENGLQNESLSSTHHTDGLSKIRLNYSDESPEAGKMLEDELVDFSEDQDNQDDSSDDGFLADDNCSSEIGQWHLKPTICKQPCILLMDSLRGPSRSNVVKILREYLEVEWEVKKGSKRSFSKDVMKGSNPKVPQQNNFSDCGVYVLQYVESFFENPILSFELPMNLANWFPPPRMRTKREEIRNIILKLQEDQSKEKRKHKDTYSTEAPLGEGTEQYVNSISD
Format: functional
Activity calls are given as the source filed them.

compound="OC(c1ccc(OCc2ccccc2)cc1)c1nnc(-c2ccccc2)o1 (stereo not given)" value="33.2 µM (active)"
compound=Cc1nc(N/N=C\c2ccc3c(c2)OCO3)sc1C value="39.1 µM (active)"
compound=COc1ccc(O)c(-c2cc(-c3cccc(Br)c3)[nH]n2)c1 value="26.5 µM (active)"

// sample Cc1c(NC(=O)C(C)OC(=O)c2ccc([N+](=O)[O-])s2)c(=O)n(-c2ccccc2)n1C (stereo not given) , its IC50 was 7.32 µM (active)

According to the records, this compound `COc1ccc2oc3ccc(OC)cc3c(=O)c2c1` displays IC50 of 15.1 µM (active)
